- measurement_notes: label from the status in PepcDB records
measurement_label: protein production

[[record]]
residues = "MLTLEIFRALLLGFTIGLTGALVPGPMLFATIELSLKKGWLAGPEVVFGHILVELVLSILILFGVASFIGSGAISAVSIIGGFSLTVFGLLTVKDAKTTASAGLSPETSGLKLTSNPVALGLITSVSNPYFWIWWLTAGSALVLKAYELGIIISIAYILGHWTADLSWFTAISGSFSRGKTLFSQQTHRYILYACGTFLIFFGLYFMFNYKGAAQLF"
measurement_label = "protein production"
value_reported = "failed"

[[record]]
residues = "MKANAIASDIKISKRDLEVAALAVIGTVAYIHYLWSFVLKITSPILIARGIFETTYSVLSIGLAKYVRIYYPLGIASSFTGAALTVIKLHLYESEIFSIINIVFDIFSVPVCAFLFIKNMEVINWH"
measurement_label = "protein production"
value_reported = "failed"

[[record]]
residues = "MDEAYKMRCDWYHHGELVSGGESESKFSQLNDEVVELYQAAEYLDEEFAGMVHLGEIVERDDKKEDEFLAKLADAETPLYPSCFNHSKLSAIMSLFTLKTKNGWSDKSHNDLLETLPEMLLEDNVLHSSLYEVKKFLKSFDMG"
measurement_label = "protein production"
value_reported = "failed"


Data provenance is a protein production outcome set (Wang et al. 2014).
